# measurement-target: HIV-1 Protease (Human immunodeficiency virus type 1 group M subtype B, UniProt P04585)
Flag rule - IC50 less than 2000 nM flags MET; the remaining entries get NOT MET.

Take a look at these entries with their results.
In [3]: df
Out[3]:
                                     smiles    label
0     O=c1oc2c(c(O)c1SCc1ccccc1)Cc1ccccc1-2      MET
1  O=C(O)COc1ccc2c(c1)-c1oc(=O)c(SCc3ccccc3)c(O)c1C2      MET
2  O=c1oc2c(c(O)c1SCc1ccccc1)Cc1ccc(OCc3ccccc3)cc1-2  NOT MET
3  O=c1oc2c(c(O)c1SCc1ccccc1)CCc1cc(O)ccc1-2  NOT MET
4    O=c1oc2c(c(O)c1SCc1ccccc1)CCc1ccccc1-2      MET

Quick check: does O=c1oc2c(c(O)c1SCCc1ccccc1)Cc1ccccc1-2 have IC50 under 2000 nM? NOT MET

Check if IC50 falls below 2000 nM for O=c1oc2c(c(O)c1SCc1ccccc1)Cc1ccc(O)cc1-2 . MET

Strictly below 2000 nM: is that where IC50 of O=c1oc2c(c(O)c1SCc1ccccc1)COc1ccccc1-2 sits? NOT MET

In the record for O=c1oc2c(c(O)c1SCc1ccccc1)CSc1ccccc1-2 , is IC50 less than 2000 nM? MET
